Collected IC50 for MAGL (Homo sapiens) across several studies; molecules listed below.
Returns: string. Value is 1 if measured IC50 is below 0.2 µM, and 0 if it is greater than or equal to it.

Solved entries (count: 7):
[
  {
    "COMPOUND SMILES": "Cc1c(C(=O)N2CC(N3CCN(C(=O)c4cscn4)CC3)C2)cccc1-c1ccccc1",
    "LABEL": 0
  },
  {
    "COMPOUND SMILES": "Cc1c(C(=O)N2CC(N3CCN(C(=O)c4cscn4)CC3)C2)sc2ccc(C(F)(F)F)cc12",
    "LABEL": 1
  },
  {
    "COMPOUND SMILES": "O=C(c1ccc(-c2ccccc2)cc1)N1CCN(C2CN(C(=O)c3ccns3)C2)CC1",
    "LABEL": 0
  },
  {
    "COMPOUND SMILES": "O=C(c1ccc2c(c1)CCN2Cc1cccc(C(F)(F)F)c1)N1CC(N2CCN(C(=O)c3nccs3)CC2)C1",
    "LABEL": 1
  },
  {
    "COMPOUND SMILES": "O=C(c1ccc2[nH]c(Cc3ccccc3)nc2c1)N1CC(N2CCN(C(=O)c3nccs3)CC2)C1",
    "LABEL": 1
  },
  {
    "COMPOUND SMILES": "O=C(c1ccccc1)N1CC[C@H](NC2CN(C(=O)c3sc4ccc(Cl)cc4c3C(F)(F)F)C2)C1",
    "LABEL": 1
  },
  {
    "COMPOUND SMILES": "O=C(c1ccccc1)N1CCN(C2CN(C(=O)c3ccc(Oc4ncc(C(F)(F)F)cc4Cl)cc3)C2)CC1",
    "LABEL": 1
  }
]

As a next step, examine the molecule that follows.
Problem: State whether 0.2 µM exceeds IC50 recorded for "Cc1cccc(Cl)c1C#CC1CN(C(=O)N2CC[C@@H]3OCC(=O)N[C@@H]3C2)C1" .
Solution: 1

====

Collected pIC50 for MAGL (Homo sapiens) across several studies; compounds listed below.
Scale for pIC50: -log10 of concentration given in mol/L; no unit attached.

See these solved cases before continuing.
[
  {
    "COMPOUND": "O=C(c1cccc(N2CCOCC2)c1F)N1CCN2C[C@@](O)(c3ccc(Cl)cc3)CC[C@@H]2C1",
    "pIC50": 6.45
  },
  {
    "COMPOUND": "O=C(c1cc2ccc(C(F)(F)F)cc2[nH]1)N1CC(N2CCN(C(=O)c3nccs3)CC2)C1",
    "pIC50": 6.28
  },
  {
    "COMPOUND": "CS(=O)(=O)c1cccc(C(c2cccnc2)C2CCN(C(=O)N3CC[C@@H]4OCC(=O)N[C@@H]4C3)CC2)c1 (single isomer, unassigned)",
    "pIC50": 6.77
  },
  {
    "COMPOUND": "CC(C)(C)Cn1cnc(-c2ccc(C(=O)N3CCN(c4nc5nc(Cl)ccc5o4)CC3)cc2F)n1",
    "pIC50": 7.70
  },
  {
    "COMPOUND": "Cc1cc(C(=O)N2CCN(c3nc4nc(Cl)ccc4o3)CC2)ccc1-c1nnc(CC(C)C)o1",
    "pIC50": 7.59
  }
]

Problem: For the compound shown here, O=C1CO[C@@H]2CCN(C(=O)N3CC4CCC(C3)C4COc3ccc(F)cc3Cl)C[C@@H]2N1 (stereo partly shown) , give the reported pIC50.
Solution: 6.17

Problem: For the compound shown here, "Cc1c(C(=O)N2CC(N3CCN(C(=O)c4cscn4)CC3)C2)sc2nc(C(F)(F)F)ccc12" , give the reported pIC50.
Solution: 6.41

====

Collected pIC50 for MAGL (Homo sapiens, UniProt Q99685) across several studies; compounds listed below.
Scale for pIC50: -log10 of concentration given in mol/L; no unit attached.

See these solved cases before continuing.
[
  {
    "COMPOUND": "Cc1csc(-c2ccc(C3CN(C(=O)N4CC[C@@H]5OCC(=O)N[C@@H]5C4)C3)cc2)n1",
    "pIC50": 7.61
  },
  {
    "COMPOUND": "O=C1CO[C@H]2CCN(C(=O)N3CC(c4ccc(C5CCCOC5)cc4)C3)C[C@H]2N1 (some centres unmarked)",
    "pIC50": 8.40
  },
  {
    "COMPOUND": "CN(c1ccccc1)c1ccc(C2CN(C(=O)CC[C@@H]3COC(=O)N3)C2)cn1",
    "pIC50": 6.76
  },
  {
    "COMPOUND": "Cc1cc(C)n(-c2ccc(C3CN(C(=O)CC[C@@H]4COC(=O)N4)C3)cc2)n1",
    "pIC50": 7.14
  }
]

Problem: For the compound shown here, "COc1cc(C(=O)N2CCN(c3nc4nc(Cl)ccc4o3)CC2)ccc1-c1ncn(C(C)(C)C)n1" , give the reported pIC50.
Solution: 7.09

Problem: For the compound shown here, "Cc1cc(CC2CCN(C(=O)N3CC[C@@H]4OCC(=O)N[C@@H]4C3)CC2)cnc1C(F)(F)F" , give the reported pIC50.
Solution: 7.50

Problem: For the compound shown here, "O=C(c1ccc2c(ccn2-c2cc(F)c(F)c(F)c2)c1)N1CC(N2CCN(C(=O)c3cscn3)CC2)C1" , give the reported pIC50.
Solution: 8.30

Problem: For the compound shown here, "O=C(c1ccc(Oc2ccc(Br)cn2)cc1)N1CC(N2CCN(C(=O)c3cscn3)CC2)C1" , give the reported pIC50.
Solution: 6.18

Problem: For the compound shown here, O=C1N[C@H](CCC(=O)N2CC(c3ncc(N4CCC(C(F)(F)F)C4)cn3)C2)CO1 (some centres unmarked) , give the reported pIC50.
Solution: 6.14

Problem: For the compound shown here, "CC1(O)CN(c2cccc(C(=O)N3CCN4C[C@@](O)(c5ccc(Cl)cc5)CC[C@@H]4C3)c2Cl)C1" , give the reported pIC50.
Solution: 6.63

Problem: For the compound shown here, CC1C(OCc2c(F)cccc2C(F)(F)F)CN1C(=O)N1CC[C@@H]2OCC(=O)N[C@@H]2C1 (single isomer, unassigned) , give the reported pIC50.
Solution: 6.47

Problem: For the compound shown here, "O=C(c1cscn1)N1CC[C@H](NC2CN(C(=O)c3cc4ccc(C(F)(F)F)cc4s3)C2)C1" , give the reported pIC50.
Solution: 6.51

Problem: For the compound shown here, "CC(C)(c1ccc(C2CN(C(=O)N3CC[C@@H]4OCC(=O)N[C@@H]4C3)C2)cc1)C(F)(F)F" , give the reported pIC50.
Solution: 9.40

Problem: For the compound shown here, "O=C(c1cccc(O)c1Cl)N1CCN2C[C@@](O)(c3ccc(Cl)cc3)CC[C@@H]2C1" , give the reported pIC50.
Solution: 6.80

Problem: For the compound shown here, "COC1(COc2ncc(C(=O)N3CCN(c4nc5nc(Cl)ccc5o4)CC3)cc2C)CC1" , give the reported pIC50.
Solution: 6.73

Problem: For the compound shown here, "COc1ccccc1C#CC1CCN(C(=O)N2CC[C@@H]3OCC(=O)N[C@@H]3C2)CC1" , give the reported pIC50.
Solution: 7.07

Problem: For the compound shown here, "O=C(c1ccc2ccn(Cc3ccncc3)c2c1)N1CC(N2CCN(C(=O)c3nccs3)CC2)C1" , give the reported pIC50.
Solution: 5.33

Problem: For the compound shown here, O=C1N[C@H](CCC(=O)N2CC(c3ccc(N4CCC(O)(C(F)(F)F)C4)nc3)C2)CO1 (single isomer, unassigned) , give the reported pIC50.
Solution: 7.01

Problem: For the compound shown here, "O=C(c1cccc(N2CC(CO)C2)c1Cl)N1CCN2C[C@@](O)(c3ccc(F)c(Cl)c3)CC[C@@H]2C1" , give the reported pIC50.
Solution: 7.10

Problem: For the compound shown here, "CN(C(=O)Cc1cccc(C(F)(F)F)c1Cl)C1CCN(C(=O)N2CC[C@@H]3OCC(=O)N[C@@H]3C2)CC1" , give the reported pIC50.
Solution: 6.22

Problem: For the compound shown here, "COC1CN(c2ccc(C3CN(C(=O)N4CC[C@@H]5OCC(=O)N[C@@H]5C4)C3)cc2)C1" , give the reported pIC50.
Solution: 7.35

Problem: For the compound shown here, O=C(C(F)CCc1cnn[nH]1)N1CC(c2ccc(C3(C(F)(F)F)CC3)cc2)C1 (centres unmarked) , give the reported pIC50.
Solution: 7.21

Problem: For the compound shown here, "O=C(c1ccc2c(ccn2-c2ccc(F)cc2F)c1)N1CC(N2CCN(C(=O)c3cscn3)CC2)C1" , give the reported pIC50.
Solution: 7.57

Problem: For the compound shown here, "CS(=O)(=O)c1ccc(-c2ccc(C3CN(C(=O)CC[C@@H]4COC(=O)N4)C3)cc2)c(Cl)c1" , give the reported pIC50.
Solution: 9.00
